- measurement_target: human recombinant acetylcholinesterase (hAChE) (Homo sapiens, UniProt P22303)
- Sequence (P22303 32-614): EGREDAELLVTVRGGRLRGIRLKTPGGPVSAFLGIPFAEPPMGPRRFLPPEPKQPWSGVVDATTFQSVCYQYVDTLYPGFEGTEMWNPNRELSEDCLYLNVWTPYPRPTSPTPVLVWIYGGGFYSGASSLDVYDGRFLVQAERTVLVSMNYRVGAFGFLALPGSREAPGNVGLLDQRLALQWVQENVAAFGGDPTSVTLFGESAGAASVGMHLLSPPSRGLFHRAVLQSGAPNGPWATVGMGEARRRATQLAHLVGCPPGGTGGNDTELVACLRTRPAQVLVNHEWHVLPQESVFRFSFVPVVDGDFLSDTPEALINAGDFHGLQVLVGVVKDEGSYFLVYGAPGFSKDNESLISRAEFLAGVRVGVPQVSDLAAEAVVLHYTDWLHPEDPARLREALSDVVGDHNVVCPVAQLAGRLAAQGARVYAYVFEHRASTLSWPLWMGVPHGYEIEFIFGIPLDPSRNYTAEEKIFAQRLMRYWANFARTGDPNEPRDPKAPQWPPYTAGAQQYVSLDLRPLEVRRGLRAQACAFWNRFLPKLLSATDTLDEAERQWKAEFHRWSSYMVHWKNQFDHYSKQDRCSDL
- run_description: Inhibition of hAChE, Ellman method
measure: IC50 (nM)

- C#CCN(C)c1nc(NCCCCC2CCN(Cc3ccccc3)CC2)c(C#N)cc1C#N: 13.1

----------
- measurement_target: human recombinant butyrylcholinesterase (hBuChE) (Homo sapiens, UniProt P06276)
- Sequence (P06276 29-602): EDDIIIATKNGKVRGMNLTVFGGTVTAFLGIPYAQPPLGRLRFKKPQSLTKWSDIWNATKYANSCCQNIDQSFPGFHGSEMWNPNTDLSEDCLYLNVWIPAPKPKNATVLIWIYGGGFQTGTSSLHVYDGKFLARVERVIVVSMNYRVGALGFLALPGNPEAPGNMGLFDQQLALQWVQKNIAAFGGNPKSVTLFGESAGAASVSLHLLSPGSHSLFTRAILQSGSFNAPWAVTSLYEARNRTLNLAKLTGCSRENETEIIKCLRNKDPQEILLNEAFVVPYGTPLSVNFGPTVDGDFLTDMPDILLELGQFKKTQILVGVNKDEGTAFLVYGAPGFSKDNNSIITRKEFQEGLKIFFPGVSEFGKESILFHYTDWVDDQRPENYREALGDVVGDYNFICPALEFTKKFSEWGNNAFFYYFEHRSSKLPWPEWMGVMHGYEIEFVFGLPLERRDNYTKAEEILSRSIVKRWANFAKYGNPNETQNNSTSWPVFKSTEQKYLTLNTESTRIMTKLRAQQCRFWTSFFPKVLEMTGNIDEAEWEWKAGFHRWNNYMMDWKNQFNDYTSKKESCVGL
- run_description: Inhibition of hBuChE, Ellman method
Recorded IC50 by entry
measure: IC50 (nM)

- C#CCNc1nc(NCCCCC2CCN(Cc3ccccc3)CC2)c(C#N)c(-c2ccccc2)c1C#N: 770
- C#CCN(C)c1nc(NCCCCC2CCN(Cc3ccccc3)CC2)c(C#N)c(-c2ccccc2)c1C#N: 1190
- C#CCNc1nc(NCCCCC2CCN(Cc3ccccc3)CC2)c(C#N)cc1C#N: 790
- C#CCN(C)c1nc(NCCCCC2CCN(Cc3ccccc3)CC2)c(C#N)cc1C#N: 835
